The reader will find reported pIC50 values listed item by item below.
System: normal human foreskin fibroblasts (BJ)
Assay: Alamar Blue cytotoxicity assay, BJ cells
Type: cell-based
Details: 48 h exposure, Alamar Blue
Procedure: BJ cells were maintained in Dulbecco’s modified Eagle’s medium (DMEM) with low glucose (1 g/L), while the A549 cells were seeded in DMEM with high glucose (5 g/L). All media were supplemented with 10% fetal bovine serum (FBS) and 1% Penicillin/Streptomycin. […] Cellular media were refreshed every other day. […] The cytotoxicity of the synthesized compounds was evaluated by Alamar Blue (AB) assays performed on both cell lines, A549 and BJ, after a 48 h exposure, as previously reported. […]
pIC50: −log10 of the molar value.

lineNotation	assaySystem	modifier	pIC50
Oc1ccc(-c2csc(-c3ccccc3)n2)cc1O	normal human foreskin fibroblasts (BJ)	=	4.10
Oc1ccc(-c2csc(-c3ccc(Cl)cc3)n2)cc1O	normal human foreskin fibroblasts (BJ)	=	4.45
Cc1nc(-c2ccc(O)c(O)c2)cs1	normal human foreskin fibroblasts (BJ)	<	4.00

====

The reader will find reported melting point values listed item by item below.
Counter-ions that a name gives are not always drawn.

molecule	melting point [°C]
Cc1ccc(-c2nc(-c3nc(-c4ccc(O)c(O)c4)cs3)cs2)cc1 (as salt: hydrochloride)	265
Oc1ccc(-c2csc(-c3csc(-c4ccccc4)n3)n2)cc1O (as salt: hydrochloride)	258
Cc1cccc(-c2nc(-c3ccc(O)c(O)c3)cs2)c1 (as salt: hydrochloride)	196
Oc1ccc(-c2csc(-c3ccncc3)n2)cc1O (as salt: hydrochloride)	240
COc1cc(-c2nc(-c3ccc(O)c(O)c3)cs2)cc(OC)c1OC (as salt: hydrochloride)	219
Oc1ccc(-c2csc(-c3ccccn3)n2)cc1O (as salt: hydrochloride)	230

====

The reader will find reported Selectivity Index values listed item by item below.
tested on: human pulmonary malignant cells (A549); test: Alamar Blue cytotoxicity assay, A549 cells; format: cell-based; conditions: ratio between the calculated IC50 on BJ and A549 cells, 48 h
readoutType: Selectivity Index

molecule	readoutType	modifier	val
Oc1ccc(-c2csc(-c3ccccc3)n2)cc1O [Compound 3b]	Selectivity Index	=	8.82
Oc1ccc(-c2csc(-c3ccccn3)n2)cc1O [Compound 3h]	Selectivity Index	=	5.84
Oc1ccc(-c2csc(-c3ccncc3)n2)cc1O [Compound 3g]	Selectivity Index	>	13.62
Oc1ccc(-c2csc(-c3ccc(Cl)cc3)n2)cc1O [Compound 3c]	Selectivity Index	=	4.39
Cc1ccc(-c2nc(-c3nc(-c4ccc(O)c(O)c4)cs3)cs2)cc1 [Compound 3j]	Selectivity Index	=	5.67
Oc1ccc(-c2csc(-c3csc(-c4ccccc4)n3)n2)cc1O [Compound 3i]	Selectivity Index	=	5.67
Cc1nc(-c2ccc(O)c(O)c2)cs1 [Compound 3a]	Selectivity Index	>	3.17
Oc1ccc(-c2csc(-c3ccc(Br)cc3)n2)cc1O [Compound 3d]	Selectivity Index	=	5.66
Cc1cccc(-c2nc(-c3ccc(O)c(O)c3)cs2)c1 [Compound 3e]	Selectivity Index	=	7.23
COc1cc(-c2nc(-c3ccc(O)c(O)c3)cs2)cc(OC)c1OC [Compound 3f]	Selectivity Index	=	9.43
